- SYSTEM: human CB1 receptor (Homo sapiens, UniProt P21554)
- Construct: expressed in transfected cells; host or cells: SK-N-MC cells, stably transfected with pcDNA3 CB-1 (human); semi-purified membrane pellet
- Sequence (P21554 whole entry): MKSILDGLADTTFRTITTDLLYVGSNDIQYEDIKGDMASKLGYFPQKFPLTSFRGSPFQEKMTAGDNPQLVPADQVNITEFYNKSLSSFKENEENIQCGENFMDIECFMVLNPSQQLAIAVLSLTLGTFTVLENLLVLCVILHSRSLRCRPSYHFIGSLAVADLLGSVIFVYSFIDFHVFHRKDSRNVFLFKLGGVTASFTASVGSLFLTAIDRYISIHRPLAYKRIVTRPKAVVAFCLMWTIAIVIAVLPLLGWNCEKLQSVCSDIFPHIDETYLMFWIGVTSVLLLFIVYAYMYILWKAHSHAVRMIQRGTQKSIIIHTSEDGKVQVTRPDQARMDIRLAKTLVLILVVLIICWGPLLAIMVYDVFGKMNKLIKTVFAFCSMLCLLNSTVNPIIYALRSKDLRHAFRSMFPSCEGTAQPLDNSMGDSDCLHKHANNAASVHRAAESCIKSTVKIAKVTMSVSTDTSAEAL
- METHOD: biochemical
- Type: binding
- Procedure: Binding Assay for CB1 or CB2 Agonists or Inverse Agonists The human CB1 and CB2 receptors were stably expressed in SK-N-MC cells transfected with pcDNA3 CB-1 (human) or pcDNA3 CB-2 (human). The cells were grown in T-180 cell culture flasks under standard cell culture conditions at 37° C. in a 5% CO2 atmosphere. […] The IC50 binding values for compounds tested were calculated by linear regression and were obtained from studies in which varying compound concentrations were used.
pIC50 values, listed per item
Remember, pIC50 is on a log scale: it is -log10 of the molar concentration.

// solved cases for pIC50 follow
COMPOUND	MEASURED_NUMBER
CC(=O)OC1CCc2c(c(C(=O)NC3C4(C)CCC(C4)C3(C)C)nn2C2CCCCC2)C1 (stereo not shown) [compound 94]	5.75
CCOC(=O)[C@H]1C2CCC(C2)[C@H]1NC(=O)c1nn(C2CCCCC2)c2c1CCCC2O (stereo partly shown) [Cpd 164]	5.22
CCOC(=O)N1CCC(NC(=O)c2nn(Cc3ccccc3)c3c2CCCC3)CC1 [compound 171]	6.19

Could you now consider this next compound?
Param readout = pIC50; param system = human CB1 receptor (Homo sapiens, UniProt P21554); param query = O=C(N[C@H]1CCCC[C@H]1CO)c1nn(C2CCCCC2)c2c1CCCC2Cl (stereo partly shown) [Cpd 60] ; response: value 5.28

* * *

- SYSTEM: human CB1 receptor (Homo sapiens)
- Construct: expressed in transfected cells; host or cells: SK-N-MC cells, stably transfected with pcDNA3 CB-1 (human); semi-purified membrane pellet
- METHOD: biochemical
- Assay type: binding
pIC50: −log10 of the molar value.
Assign rule met whenever pIC50 does not fall below 6; assign rule not met whenever it does.

COMPOUND	CLASSIFICATION
Cc1ccc(-n2nc(C(=O)NC3C4(C)CCC(C4)C3(C)C)c3c2CCCC3)cc1 (centres unmarked)	rule met
CC(NC(=O)c1nn(C2CCCCC2)c2c1CCCC2)C1CCCCCC1 (centres unmarked)	rule not met

# check: pIC50 of O=C(NCC12CC3CC(CC(C3)C1)C2)c1nn(-c2ccc(F)cc2)c2c1CCCC2CCc1ccccc1 (centres unmarked) is greater than or equal to 6 rule met

# check: pIC50 of CCOC(=O)[C@H]1CCCC[C@@H]1NC(=O)c1nn(C2CCCCC2)c2c1CCCC2 is greater than or equal to 6 rule met

# check: pIC50 of CCOC(=O)[C@H]1C2CCC(C2)[C@H]1NC(=O)c1nn(C2CCCCC2)c2c1CCCC2Cl (some centres unmarked) is greater than or equal to 6 rule not met

# check: pIC50 of C[C@@H](NC(=O)c1nn(-c2ccc(Cl)cc2Cl)c2c1CCC/C2=C\c1ccsc1)c1ccccc1 is greater than or equal to 6 rule met

# check: pIC50 of O=C(NN1CCCCCC1)c1nn(-c2ccc(Cl)cc2Cl)c2c1CCCC2=Cc1ccco1 is greater than or equal to 6 rule met

# check: pIC50 of O=C(NN1CCCCC1)c1nn(-c2ccc(Cl)cc2Cl)c2c1CCC/C2=C\c1ccoc1 is greater than or equal to 6 rule met
